Test system: Felis catus
Test: Inhibition of 2 Hz electric current-induced cardioaccelerator nerve stimulation in iv dosed cat by cardiotachometer analysis
Type: functional
measurement-name: ED50 (µmol/kg)
A number alone suffices; assume µmol/kg.

stdin: What value of ED50 on Felis catus does CN(C)CCc1ccc(O)c(O)c1 have?
stdout: 0.024

stdin: Notebook: pull reported ED50 for Felis catus, entry CCN(CC)CCc1ccc(O)c(O)c1
stdout: 0.041

stdin: Look up ED50 with Felis catus for this molecule: CCCN(CCC)CCc1ccc(O)c(O)c1
stdout: 0.068

stdin: Tell me reported ED50 for CN1CCc2cccc3c2[C@H]1Cc1ccc(O)c(O)c1-3.CN1CCc2cccc3c2[C@H]1Cc1ccc(O)c(O)c1-3.Cl.Cl.O [APOMORPHINE HYDROCHLORIDE] , tested with Felis catus.
stdout: 0.1

====

System: Canis familiaris
Assay: Induction of emesis in sc dosed dog
Type: functional
Settings: Canis lupus familiaris
Activity calls are given as the source filed them. The rule behind the calls is not given here.
measurement-name: ED50

- CCN(CC)CCc1ccc(O)c(O)c1: inactive
- CCCN(CCC)CCc1ccc(O)c(O)c1: 1 mg/kg
- CN1CCc2cccc3c2[C@H]1Cc1ccc(O)c(O)c1-3.CN1CCc2cccc3c2[C@H]1Cc1ccc(O)c(O)c1-3.Cl.Cl.O [APOMORPHINE HYDROCHLORIDE]: 0.13 µmol/kg
- CN(C)CCc1ccc(O)c(O)c1: inactive

====

For each of the compounds below, state its ED50.
Organism: Felis catus
Test: Agonist activity at dopamine receptor in cat right atrium assessed as inhibition of cardiaccelerator nerve stimulation rate by cardiotachometer analysis
Assay type: tissue-based
Settings: Cardiac atrium
Record the value in nM, omitting the unit from your answer.

stdin: Consider the compound shown here: CCN(CC)CCc1ccc(O)c(O)c1 What is its recorded ED50?
stdout: 340

stdin: Data request, read-out ED50, for CN(C)CCc1ccc(O)c(O)c1
stdout: 70

stdin: Quick check: ED50 of CCCN(CCC)CCc1ccc(O)c(O)c1 ?
stdout: 420

stdin: ED50 lookup needed for CN1CCc2cccc3c2[C@H]1Cc1ccc(O)c(O)c1-3.CN1CCc2cccc3c2[C@H]1Cc1ccc(O)c(O)c1-3.Cl.Cl.O [APOMORPHINE HYDROCHLORIDE] , thanks.
stdout: 43

====

System: Columba livia
Assay: Induction of pecking in im dosed pigeon
Format: functional, organism-based
The source made the active and inactive calls. The calls are words filed in the database; no cut-off is given here.
measurement-name: Activity

* CCN(CC)CCc1ccc(O)c(O)c1 | inactive
* CCCN(CCC)CCc1ccc(O)c(O)c1 | inactive
* CCCCN(CCCC)CCc1ccc(O)c(O)c1 | inactive
* CN(C)CCc1ccc(O)c(O)c1 | inactive

This collection of values is drawn from ChEMBL document CHEMBL3244265.
